- measured.target: 5'-AMP-activated protein kinase catalytic subunit alpha-1 (Mus musculus) (UniProt Q5EG47)
- Sequence (Q5EG47 whole entry): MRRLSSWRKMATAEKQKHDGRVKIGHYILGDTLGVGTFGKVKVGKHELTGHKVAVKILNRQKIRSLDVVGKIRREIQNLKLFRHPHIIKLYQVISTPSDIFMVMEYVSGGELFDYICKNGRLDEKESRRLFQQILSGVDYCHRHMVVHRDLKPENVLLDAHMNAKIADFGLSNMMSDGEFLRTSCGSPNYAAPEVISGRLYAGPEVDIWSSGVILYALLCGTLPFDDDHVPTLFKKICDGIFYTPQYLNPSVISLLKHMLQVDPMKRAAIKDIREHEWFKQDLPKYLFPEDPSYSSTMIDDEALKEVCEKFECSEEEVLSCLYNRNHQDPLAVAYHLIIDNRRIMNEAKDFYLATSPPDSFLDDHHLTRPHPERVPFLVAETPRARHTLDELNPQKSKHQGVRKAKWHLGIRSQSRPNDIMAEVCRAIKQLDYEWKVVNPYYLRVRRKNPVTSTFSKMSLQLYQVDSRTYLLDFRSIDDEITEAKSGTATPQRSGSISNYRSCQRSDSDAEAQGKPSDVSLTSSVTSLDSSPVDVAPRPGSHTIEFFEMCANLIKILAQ
- procedure.text: Activation of AMPKalpha in differentiated mouse C2C12 cells assessed as phosphorylated-ACC level at 10 uM after 30 mins by Western blot analysis relative to control
- Format: cell-based
Calls of active or inactive are those of the source. The rule behind the calls is not given here.
Choose one outcome from this list and give only that: active, inactive

Illustrative cases are given below, each with its answer.
{"compound": "CC(C)=CCc1c(O)ccc2c1oc1c3ccc(O)cc3oc(=O)c21", "assigned.class": "active"}
{"compound": "COc1cc(C2(C=O)COc3cc(O)ccc32)c(OC)cc1O (stereo not drawn)", "assigned.class": "inactive"}

Entry `CC(C)=CCc1cc(-c2oc3c(CC=C(C)C)c(O)ccc3c2C(=O)O)c(O)cc1O` : call = ? active

Entry `COc1ccc2c(oc3c4ccc(O)cc4oc(=O)c23)c1CC=C(C)C` : call = ? active

Entry `COc1ccc2c(C=O)c(-c3ccc(O)cc3O)oc2c1CC=C(C)C` : call = ? active

Entry `COc1cc([C@@H]2COc3cc(O)ccc32)c(OC)cc1O` : call = ? inactive

Entry `CC(C)=CCc1cc2c(cc1O)oc(=O)c1c3ccc(O)c(CC=C(C)C)c3oc21` : call = ? active

Entry `CC(C)=CCc1cc(-c2oc3c(CC=C(C)C)c(O)ccc3c2C=O)c(O)cc1O` : call = ? inactive
